Assay: qHTS Assay for Lipid Storage Modulators (AID 1519); note: % is set by controls: 0 for no effect and ±100 for the full control effect
Conditions: Drosophila S3 cells, BODIPY lipid droplet/cell ratio, laser cytometry; at 57.5 µM (top of the series); cells loaded with oleic acid
Records with an inconclusive call do not appear.
Readout Label: activity change, negative = inhibition (%)

>>> observed_result("NCC1CCC(C(=O)O)CC1 (configuration not stated)")
6.78
>>> observed_result("COc1ccc2ccc(=O)oc2c1CC=C(C)C")
9.52
>>> observed_result("CC1(C)OC2CC3C4CC(F)C5=CC(=O)C=CC5(C)C4C(O)CC3(C)[C@]2(C(=O)CO)O1 (some centres not stated)")
6.59
>>> observed_result("OC(c1cc(C(F)(F)F)nc2c(C(F)(F)F)cccc12)C1CCCCN1 (configuration not stated)")
2.49
>>> observed_result("CC(NCCc1ccc(O)cc1)C(O)c1ccc(O)cc1 (configuration not stated)")
2.67
>>> observed_result("CCNC(=O)[C@H]1O[C@@H](n2cnc3c(N)nc(NCCc4ccc(CCC(=O)O)cc4)nc32)[C@H](O)[C@H]1O")
-1.93
>>> observed_result("Nc1ccn([C@@H]2O[C@H](CO)[C@@H](O)[C@H]2O)c(=O)n1")
-3.18

* * *

Assay: Quantitative High-Throughput drug screen in 47 multiple myeloma cell lines against the NCATS MIPE library collection: LP1_DSMZ cell viability assay (AID 1918982); note: nearly all actives have a fitted effect of over 35% in size
Conditions: LP1 myeloma viability, CellTiter-Glo ATP luminescence, 48 h; series mostly up to 45.8 µM
Inconclusive results are not listed. Active and inactive are the calls of the source. The call rests on the fitted dose curve; in most records, active means well fitted cell-killing curve with a large enough effect; inconclusive means small, poorly fitted or top-dose-only effect, or effect the other way; inactive means no such curve, though single readings can be large or run the other way.
Possible outcomes: y (active), n (inactive)

>>> group("O=C(O)C1=NC(C(=O)O)CC(C=CN2c3cc(O)c(OC4OC(CO)C(O)C(O)C4O)cc3CC2C(=O)O)=C1 (configuration not stated)")
"n"
>>> group("C[C@@H]1C[C@H]2[C@@H]3CCC4=CC(=O)C=C[C@]4(C)[C@@]3(F)[C@@H](O)C[C@]2(C)[C@@]1(O)C(=O)CO")
"y"
>>> group("CC1C(=O)OC2C(O)C34C5CC(C(C)(C)C)C36C(OC(=O)C6O)OC4(C(=O)O5)C12O (configuration not stated)")
"n"
>>> group("CCN(CCO)CCCOc1ccc2c(Nc3cc(CC(=O)Nc4cccc(F)c4)[nH]n3)ncnc2c1")
"n"
>>> group("NC(N)=Nc1nc(CSCCC(N)=NS(N)(=O)=O)cs1")
"n"
>>> group("CN1CCN(c2ncc(-c3cc(Cl)cc(Cl)c3Cl)c(N)n2)CC1")
"n"
>>> group("CCCCC(C=O)NC(=O)C(CC(C)C)NC(=O)OCc1ccccc1 (configuration not stated)")
"y"
>>> group("COc1nccc(-c2c(-c3ccc(F)cc3)ncn2C2CCNCC2)n1")
"n"
>>> group("Cn1cnc(-c2cc3nccc(Oc4ccc(NC(=S)NC(=O)Cc5ccccc5)cc4F)c3s2)c1")
"y"
>>> group("N#Cc1c(N(CC(=O)O)CC(=O)O)sc(C(=O)O)c1CC(=O)O")
"n"
>>> group("CN1CCC(COc2cnc(-c3cccc(Cn4nc(-c5cccc(C#N)c5)ccc4=O)c3)nc2)CC1")
"y"
>>> group("C[C@@H]1[C@H](C)CC[C@]2(C(=O)O)CC[C@]3(C)C(=CC[C@@H]4[C@@]5(C)CC[C@H](O)C(C)(C)[C@H]5CC[C@]43C)[C@@H]12")
"y"
>>> group("CCOC(=O)[C@H](CCc1ccccc1)N[C@@H](C)C(=O)N1CCCC1C(=O)O (some centres not stated)")
"n"
>>> group("CC(C)CN(C[C@@H](O)[C@H](Cc1ccccc1)NC(=O)O[C@H]1CO[C@H]2OCC[C@H]21)S(=O)(=O)c1ccc(N)cc1")
"y"
>>> group("Nc1[nH]nc2nnc(-c3c(-c4ccccc4)nn4ccccc34)cc12")
"n"
>>> group("CC(=O)N1CCN(c2ccc(OCc3nn(C)c(C)c3-c3cccc4c(CCCOc5cc(C)c(Cl)c(C)c5)c(C(=O)O)n(Cc5cccnc5)c34)cc2)CC1")
"n"
>>> group("CC1(C)C(N(O)C(=O)Nc2ccc(Cl)cc2)N(c2ccc(Cl)cc2)C(=O)N1CC(=O)NN=CC=Cc1ccc([N+](=O)[O-])o1 (configuration not stated)")
"y"

Measured values drawn from PubChem BioAssay (NCATS) for this set.
